The following sequences are shown together with reported self-splicing fitness (ln) values.
- test.summary: self-splicing fitness, log relative to wild type (ln ratio); higher = more splicing; Tetrahymena group I intron in knt gene, E. coli kanamycin selection, DiMSum; sequences stand for … in CUCUCU…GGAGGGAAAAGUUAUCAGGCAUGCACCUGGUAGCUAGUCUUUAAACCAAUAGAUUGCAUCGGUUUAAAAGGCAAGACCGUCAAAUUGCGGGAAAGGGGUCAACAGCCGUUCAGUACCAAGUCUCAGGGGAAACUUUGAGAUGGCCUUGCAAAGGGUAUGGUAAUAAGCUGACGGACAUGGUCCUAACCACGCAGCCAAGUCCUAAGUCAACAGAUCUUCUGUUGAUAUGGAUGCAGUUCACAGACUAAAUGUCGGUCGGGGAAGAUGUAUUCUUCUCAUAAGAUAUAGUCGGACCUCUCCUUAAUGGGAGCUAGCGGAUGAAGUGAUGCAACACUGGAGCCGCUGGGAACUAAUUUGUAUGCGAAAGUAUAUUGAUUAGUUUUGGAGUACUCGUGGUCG;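 further: selection with 25 µg/mL kanamycin versus none on LB agar overnight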
- experimental.context: 37 °C
Could you keep your reply to the number by itself?

# input sequence: `GAGUAGCAAUAUUACGGGUA` ; wanted: its self-splicing fitness (ln) -2.54

# input sequence: `UUAAAGCAAUAUUACGAAGU` ; wanted: its self-splicing fitness (ln) -2.47

# input sequence: `GGAAAGCAAUAUUACGGCUU` ; wanted: its self-splicing fitness (ln) -0.393

# input sequence: `AUGCAGCAAUAUUACGCCAA` ; wanted: its self-splicing fitness (ln) -0.608

# input sequence: `CACUAGCAAUAUUACGGGAG` ; wanted: its self-splicing fitness (ln) -0.152

# input sequence: `UAAGAGCAAUAUUACGUUUG` ; wanted: its self-splicing fitness (ln) -1.07

* * *

- test.summary: self-splicing fitness, log relative to wild type (ln ratio); higher = more splicing; Tetrahymena group I intron in knt gene, E. coli kanamycin selection, DiMSum; sequences stand for … in CUCUCU…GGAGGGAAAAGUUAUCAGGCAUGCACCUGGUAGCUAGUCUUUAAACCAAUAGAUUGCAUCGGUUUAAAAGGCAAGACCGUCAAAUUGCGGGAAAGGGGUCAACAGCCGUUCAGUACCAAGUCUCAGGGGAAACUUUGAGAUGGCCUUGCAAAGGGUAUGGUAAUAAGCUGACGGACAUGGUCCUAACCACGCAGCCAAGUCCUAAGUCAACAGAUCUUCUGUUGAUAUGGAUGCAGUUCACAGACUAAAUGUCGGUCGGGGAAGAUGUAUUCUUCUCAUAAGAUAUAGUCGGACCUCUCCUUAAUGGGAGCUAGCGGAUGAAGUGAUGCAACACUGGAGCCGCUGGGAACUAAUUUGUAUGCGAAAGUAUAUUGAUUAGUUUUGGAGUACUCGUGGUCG
- experimental.context: 37 °C
Label fulfilled for high-side self-splicing fitness (ln) (at or above -2) and not fulfilled for low-side self-splicing fitness (ln) (below it).

Sample answers from the record:
Exam item: decide whether the reported self-splicing fitness (ln) for `UAUGAGCAAUAUUACGUACG` is at least -2. fulfilled

Exam item: decide whether the reported self-splicing fitness (ln) for `ACCUAGCAAUAUUACGUUUU` is at least -2. fulfilled

Exam item: decide whether the reported self-splicing fitness (ln) for `CGCAAGCAAUAUUACGUUCA` is at least -2. fulfilled

Exam item: decide whether the reported self-splicing fitness (ln) for `GUCAAGCAAUAUUACGUAGC` is at least -2. fulfilled

Exam item: decide whether the reported self-splicing fitness (ln) for `AACAAGCAAUAUUACGGUCA` is at least -2. fulfilled

Continuing:
Exam item: decide whether the reported self-splicing fitness (ln) for `GGUCAGCAAUAUUACGGGUC` is at least -2. fulfilled

Exam item: decide whether the reported self-splicing fitness (ln) for `GCAUAGCAAUAUUACGCGCU` is at least -2. not fulfilled

Exam item: decide whether the reported self-splicing fitness (ln) for `GGUGAGCAAUAUUACGCAAG` is at least -2. fulfilled

Exam item: decide whether the reported self-splicing fitness (ln) for `AAGAAGCAAUAUUACGACAG` is at least -2. fulfilled

* * *

- test.summary: self-splicing fitness, log relative to wild type (ln ratio); higher = more splicing; Tetrahymena group I intron in knt gene, E. coli kanamycin selection, DiMSum; sequences stand for … in CUCUCU…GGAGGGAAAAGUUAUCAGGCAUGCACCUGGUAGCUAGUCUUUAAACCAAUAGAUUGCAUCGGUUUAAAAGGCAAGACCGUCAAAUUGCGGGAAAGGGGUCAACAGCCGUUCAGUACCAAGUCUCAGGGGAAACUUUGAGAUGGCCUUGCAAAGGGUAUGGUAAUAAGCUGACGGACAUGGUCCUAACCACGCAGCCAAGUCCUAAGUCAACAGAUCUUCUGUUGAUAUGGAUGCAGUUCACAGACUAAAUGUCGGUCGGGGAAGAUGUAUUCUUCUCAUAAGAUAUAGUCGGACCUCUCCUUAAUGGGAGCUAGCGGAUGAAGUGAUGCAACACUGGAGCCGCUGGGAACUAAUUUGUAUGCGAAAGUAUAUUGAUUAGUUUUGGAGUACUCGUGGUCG
- experimental.context: 30 °C
Category scheme (self-splicing fitness (ln)): low end: < -3; middle: ≥ -3 and < -2; high end: ≥ -2

Sample answers from the record:
Class (by measured self-splicing fitness (ln)) for `AAACAGCAAUAUUACGCGGU` low end

Class (by measured self-splicing fitness (ln)) for `CCCGAGCAAUAUUACGAAGA` middle

Class (by measured self-splicing fitness (ln)) for `UUACAGCAAUAUUACGAACC` high end

Class (by measured self-splicing fitness (ln)) for `GAUAAGCAAUAUUACGAGGA` middle

Class (by measured self-splicing fitness (ln)) for `GCAGAGCAAUAUUACGUUUC` low end

Class (by measured self-splicing fitness (ln)) for `AUCUAGCAAUAUUACGUCUU` high end

Class (by measured self-splicing fitness (ln)) for `CCCGAGCAAUAUUACGAUAG` low end

Class (by measured self-splicing fitness (ln)) for `CUCAAGCAAUAUUACGCGCU` middle

Class (by measured self-splicing fitness (ln)) for `CAACAGCAAUAUUACGUACU` high end

Class (by measured self-splicing fitness (ln)) for `UGGAAGCAAUAUUACGUAGG` high end

Continuing:
Class (by measured self-splicing fitness (ln)) for `GCGCAGCAAUAUUACGCAGG` low end

Class (by measured self-splicing fitness (ln)) for `AACGAGCAAUAUUACGCGCU` low end

Class (by measured self-splicing fitness (ln)) for `GCCAAGCAAUAUUACGUGCC` low end

Class (by measured self-splicing fitness (ln)) for `ACCCAGCAAUAUUACGUGCG` low end

Class (by measured self-splicing fitness (ln)) for `AAAUAGCAAUAUUACGCUCU` high end

* * *

- test.summary: self-splicing fitness, log relative to wild type (ln ratio); higher = more splicing; Tetrahymena group I intron in knt gene, E. coli kanamycin selection, DiMSum; sequences stand for … in CUCUCU…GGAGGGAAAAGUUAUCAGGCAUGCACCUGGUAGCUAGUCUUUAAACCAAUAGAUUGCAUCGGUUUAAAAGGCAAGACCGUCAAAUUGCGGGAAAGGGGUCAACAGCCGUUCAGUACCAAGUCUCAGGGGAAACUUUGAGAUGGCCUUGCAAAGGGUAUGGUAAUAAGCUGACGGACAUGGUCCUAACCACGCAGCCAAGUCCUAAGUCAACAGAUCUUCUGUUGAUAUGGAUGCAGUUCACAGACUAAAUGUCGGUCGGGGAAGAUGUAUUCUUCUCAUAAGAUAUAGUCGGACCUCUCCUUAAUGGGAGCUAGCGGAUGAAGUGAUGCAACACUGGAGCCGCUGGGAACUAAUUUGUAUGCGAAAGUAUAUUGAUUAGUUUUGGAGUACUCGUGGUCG
- experimental.context: 37 °C
Category scheme (self-splicing fitness (ln)): low: < -2; moderate: ≥ -2 and < -0.5; high: ≥ -0.5

Class (by measured self-splicing fitness (ln)) for `CGACAGCAAUAUUACGUUAG` moderate

Class (by measured self-splicing fitness (ln)) for `UAACAGCAAUAUUACGACUC` moderate

Class (by measured self-splicing fitness (ln)) for `AAGGAGCAAUAUUACGAGCG` low

Continuing:
Class (by measured self-splicing fitness (ln)) for `UGAGAGCAAUAUUACGCUGG` low

Class (by measured self-splicing fitness (ln)) for `UGUGAGCAAUAUUACGUGCA` moderate

Class (by measured self-splicing fitness (ln)) for `UUUAAGCAAUAUUACGUCCG` high

Class (by measured self-splicing fitness (ln)) for `UGGCAGCAAUAUUACGUCCG` high

Class (by measured self-splicing fitness (ln)) for `CAUUAGCAAUAUUACGAAGC` low

Class (by measured self-splicing fitness (ln)) for `UCAUAGCAAUAUUACGGUUU` moderate

Class (by measured self-splicing fitness (ln)) for `UGUCAGCAAUAUUACGCGAU` low

Class (by measured self-splicing fitness (ln)) for `GUUGAGCAAUAUUACGUCUC` moderate

Class (by measured self-splicing fitness (ln)) for `CCUAAGCAAUAUUACGUGGG` low

Class (by measured self-splicing fitness (ln)) for `CACCAGCAAUAUUACGUACU` low

Class (by measured self-splicing fitness (ln)) for `CGAGAGCAAUAUUACGGUAC` moderate

Class (by measured self-splicing fitness (ln)) for `AUUCAGCAAUAUUACGCCCA` high

Class (by measured self-splicing fitness (ln)) for `GCCUAGCAAUAUUACGGGAA` high

Class (by measured self-splicing fitness (ln)) for `UGGUAGCAAUAUUACGAGGG` low

Class (by measured self-splicing fitness (ln)) for `ACCAAGCAAUAUUACGUCCA` moderate

// provenance: the supplement of paper PMC7877785
